# System: PPARδ (Homo sapiens)
# Construct: A chimeric receptor expression plasmid (GAL4-hPPARδ LBD); expressed in transfected cells; host or cells: CV-1 cells
# Protocol: PPARδ transactivation activity (GAL4-hPPARδ LBD / UASx4-TK-LUC reporter in CV-1 cells)
# Assay type: cell-based
# Condition Summary: CV-1, 40 h; in the manner as described in Example 9; Table 26; read-out: PPARδ (PPAR activating power)
Attribute Measured: Emax (%)

Worked examples, 3 molecules total:
Molecule: CC(C)c1oc(-c2cc3ccccc3cc2O)nc1CCC(=O)c1ccc(OC(C)(C)C(=O)O)cc1 [Example 7-11]
Emax (%): 85

Molecule: CC(C)c1oc(-c2ccc(Br)cc2Cl)nc1CCC(=O)c1ccc(OC(C)(C)C(=O)O)cc1 [Example 7-13]
Emax (%): 81

Molecule: CC(C)c1oc(-c2ccc(-c3ccccc3)cc2Cl)nc1CCC(=O)c1ccc(OC(C)(C)C(=O)O)cc1 [Example 7-14]
Emax (%): 53

A. CC(C)c1oc(-c2cccc(Cl)c2Cl)nc1CCC(=O)c1ccc(OC(C)(C)C(=O)O)cc1 [Example 7-6]
B. CC(C)c1oc(-c2cc3ccccc3o2)nc1CCC(=O)c1ccc(OC(C)(C)C(=O)O)cc1 [Example 7-7]
Please let me know which one, A or B , has a lower measured Emax value. # reply format: chosen label
B
(B: 65%, A: 96%)

====

# System: PPARα (Homo sapiens, UniProt Q07869)
# Construct: Receptor expression plasmid (GAL4-hPPARα, LBD GAL4-hPPARγ LBD, GAL4-hPPARδ LBD); expressed in transfected cells; host or cells: CV-1 cells
# Sequence (Q07869 239-466 limits assumed): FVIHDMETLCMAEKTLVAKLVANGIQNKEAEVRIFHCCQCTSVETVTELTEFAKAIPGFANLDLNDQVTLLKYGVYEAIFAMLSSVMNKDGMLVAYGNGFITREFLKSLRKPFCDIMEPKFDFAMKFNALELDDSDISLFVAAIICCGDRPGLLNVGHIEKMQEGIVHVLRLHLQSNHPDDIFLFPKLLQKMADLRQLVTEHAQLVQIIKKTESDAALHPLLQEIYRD
# Protocol: PPARα transactivation activity (GAL4-hPPARα LBD / UASx4-TK-LUC reporter in CV-1 cells)
# Type: cell-based
# Condition Summary: CV-1; in the manner as described in Example 9; Table 26; read-out: PPARα (PPAR activating power)
Attribute Measured: Emax (%)

Compound: CC(C)c1oc(-c2ccc(Cl)cc2Cl)nc1CCC(=O)c1ccc(OC(C)(C)C(=O)O)cc1
Units: %
Emax: 1

A. CC(C)c1oc(-c2ccc(Cl)cc2Cl)nc1CC=Cc1ccc(OC(C)(C)C(=O)O)cc1
B. CC(C)c1oc(-c2ccc(-c3ccccc3)cc2)nc1CCC(=O)c1ccc(OC(C)(C)C(=O)O)cc1
C. CC(C)c1oc(-c2ccc3ccccc3c2O)nc1CCC(=O)c1ccc(OC(C)(C)C(=O)O)cc1
Rank descending by Emax. Please express your ranking as an ordered list of the labels.
C, A, B

====

# System: PPARδ (Homo sapiens, UniProt Q03181)
# Construct: A chimeric receptor expression plasmid (GAL4-hPPARδ LBD); expressed in transfected cells; host or cells: CV-1 cells
# Sequence (Q03181 211-439 limits assumed): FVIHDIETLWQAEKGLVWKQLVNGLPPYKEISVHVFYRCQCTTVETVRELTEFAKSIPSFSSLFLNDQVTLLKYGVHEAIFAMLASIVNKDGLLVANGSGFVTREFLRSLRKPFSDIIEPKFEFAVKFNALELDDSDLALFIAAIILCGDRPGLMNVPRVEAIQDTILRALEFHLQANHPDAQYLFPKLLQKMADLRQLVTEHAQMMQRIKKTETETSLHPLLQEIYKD
# Protocol: PPARδ transactivation activity (GAL4-hPPARδ LBD / UASx4-TK-LUC reporter in CV-1 cells)
# Type: cell-based
# Condition Summary: CV-1 cells, GAL4-hPPAR LBD reporter; relative activities vs control reagents
# Description: A chimeric receptor expression plasmid (GAL4-hPPARδ LBD), a reporter plasmid (UASx4-TK-LUC) and β-galactosidase (β-GAL) are transfected into CV-1 cells by utilizing a lipofection reagent DMRIE-C (Life Technologies). (1) Measurement of PPARα,γ,δ Transactivation Activity […] The culture medium was removed and the cells were washed with PBS twice. […] (luciferase activity) was measured by means of MLR-100 type Microluminoreader (available from Corona Electrics Co., Ltd.). […]
Attribute Measured: activity to PPARδ relative to activity to PPARα and γ (selectivity)

Structure String: CC(C)c1oc(-c2cccc(Cl)c2O)nc1CCC(=O)c1ccc(OC(C)(C)C(=O)O)cc1
Endpoint Value: selectively higher
--
Structure String: CC(C)c1oc(-c2ccccc2Cl)nc1CCC(=O)c1ccc(OC(C)(C)C(=O)O)cc1
Endpoint Value: selectively higher
--
Structure String: CC(C)c1oc(-c2ccccc2Cl)nc1CC=Cc1ccc(OC(C)(C)C(=O)O)cc1
Endpoint Value: selectively higher
